Source: paper PMC5700166

Study target: GST-Dm-Relish (Drosophila melanogaster, UniProt Q94527 99-473)
Sequence: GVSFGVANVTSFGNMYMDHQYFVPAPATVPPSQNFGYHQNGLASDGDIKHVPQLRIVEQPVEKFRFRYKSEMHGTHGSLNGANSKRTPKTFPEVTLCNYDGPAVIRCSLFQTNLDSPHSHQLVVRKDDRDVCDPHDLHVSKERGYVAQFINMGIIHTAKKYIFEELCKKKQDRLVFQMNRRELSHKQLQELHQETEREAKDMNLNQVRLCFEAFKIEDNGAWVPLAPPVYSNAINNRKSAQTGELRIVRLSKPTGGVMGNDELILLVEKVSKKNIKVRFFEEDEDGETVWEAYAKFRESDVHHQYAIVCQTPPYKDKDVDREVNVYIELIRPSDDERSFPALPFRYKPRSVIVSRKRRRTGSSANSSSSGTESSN
Experiment notes: protein-binding microarray (PBM); PBM: ~300 nM protein, 6 mM HEPES pH 7.8, 80 mM KCl, 0.5 mM EDTA, 0.5 mM EGTA, 6% glycerol, 35 ng/ul poly-dIdC, 1% milk, 1 h, room temperature; high values mean tight binding
Assay setup: dsDNA, one strand shown
So basically: is binding signal under 5 z-score? Then y. Not under? Then n.

Confirm or reject: binding signal of CCGATTAACATCAATTTCCCCCCTGATGTTAATCGGGTCTTGATTCGCTTGACGCTGCTG lies strictly below 5 z-score
n

Please check: binding signal for CCGATTAACATCAGGGGACGGGATGATGTTAATCGGGTCTTGATTCGCTTGACGCTGCTG , strictly under 5 z-score or not?
y

Please indicate whether the reported binding signal of CCGATTAACATCAGGAAACTCCATGATGTTAATCGGGTCTTGATTCGCTTGACGCTGCTG is strictly below 5 z-score.
y

Check if binding signal falls below 5 z-score for CCGATTAACATCAAGAGACCCCCTGATGTTAATCGGGTCTTGATTCGCTTGACGCTGCTG .
y

----------
Measured binding signal, listed per entry.
Study target: GST-Dm-Relish (Drosophila melanogaster, UniProt Q94527 99-473)
Sequence: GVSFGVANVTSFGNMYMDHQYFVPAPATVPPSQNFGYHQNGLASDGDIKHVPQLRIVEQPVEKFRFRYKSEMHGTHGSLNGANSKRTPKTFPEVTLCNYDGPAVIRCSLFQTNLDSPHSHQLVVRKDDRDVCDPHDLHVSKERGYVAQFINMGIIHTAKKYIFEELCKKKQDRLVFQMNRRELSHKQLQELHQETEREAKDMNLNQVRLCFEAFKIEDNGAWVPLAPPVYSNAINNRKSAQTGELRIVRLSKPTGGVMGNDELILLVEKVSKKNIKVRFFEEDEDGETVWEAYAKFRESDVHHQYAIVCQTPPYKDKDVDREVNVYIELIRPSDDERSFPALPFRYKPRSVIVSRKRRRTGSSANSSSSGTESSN
Experiment notes: protein-binding microarray (PBM); PBM: ~300 nM protein, 6 mM HEPES pH 7.8, 80 mM KCl, 0.5 mM EDTA, 0.5 mM EGTA, 6% glycerol, 35 ng/ul poly-dIdC, 1% milk, 1 h, room temperature; Ap Aiptasia and Nv Nematostella (sea anemones) / Co Capsaspora / Aq Amphimedon (sponge) / Dm Drosophila / Hu human; RHD is the Rel homology domain; high values mean tight binding
Assay setup: dsDNA, one strand shown
# unit: z-score | format: bare number

Sequence text: CCGATTAACATCACGAATTTCCCTGATGTTAATCGGGTCTTGATTCGCTTGACGCTGCTG
Quantitative result: 2.13

Sequence text: CCGATTAACATCAAATTTCCCACTGATGTTAATCGGGTCTTGATTCGCTTGACGCTGCTG
Quantitative result: 3.33

Sequence text: CCGATTAACATCAAGGGGGGATGTGATGTTAATCGGGTCTTGATTCGCTTGACGCTGCTG
Quantitative result: 4.07

Sequence text: CCGATTAACATCAGGAATATCCCTGATGTTAATCGGGTCTTGATTCGCTTGACGCTGCTG
Quantitative result: 2.78

Sequence text: CCGATTAACATCAAGAGTCCCCCTGATGTTAATCGGGTCTTGATTCGCTTGACGCTGCTG
Quantitative result: 5.74

Give binding signal for CCGATTAACATCAAAAAATTCCCTGATGTTAATCGGGTCTTGATTCGCTTGACGCTGCTG tested on GST-Dm-Relish (Drosophila melanogaster, UniProt Q94527 99-473).
8.53

Find the measured binding signal of CCGATTAACATCAAATTCCCCCTTGATGTTAATCGGGTCTTGATTCGCTTGACGCTGCTG with GST-Dm-Relish (Drosophila melanogaster, UniProt Q94527 99-473) as test system.
8.62

GET binding signal where system = GST-Dm-Relish (Drosophila melanogaster, UniProt Q94527 99-473) and item = CCGATTAACATCAAATACCCCCTTGATGTTAATCGGGTCTTGATTCGCTTGACGCTGCTG
6.19

Look up and report binding signal, with GST-Dm-Relish (Drosophila melanogaster, UniProt Q94527 99-473) as system, for CCGATTAACATCACGGGACCCCCTGATGTTAATCGGGTCTTGATTCGCTTGACGCTGCTG
6.84
